system: HEK293; assay: Cytotoxic Profiling of Annotated Libraries Using Quantitative High-Throughput Screening (AID 1296008); conditions: Five cell lines viability, CellTiter-Glo ATP luminescence, 48-72 h; also: nearly all actives have a fitted effect of over 60% in size
Records with an inconclusive call do not appear. Active and inactive are the calls of the source. Calls follow the shape of the dose curve; as a rule, active = well fitted inhibition curve with a large enough effect; inconclusive = small, poorly fitted or top-dose-only effect; inactive = flat fitted curve, though single readings scatter.
One label from this list, please: active, inactive

Example entries begin here.
MOLECULE	EXPERIMENTAL_SYSTEM	ANSWER_LABEL
Nc1ccn([C@@H]2O[C@H](CO)[C@@H](O)C2O)c(=O)n1 (some centres not stated)	HEK293	inactive
CCN(CC)CCOc1ccc(Cc2ccccc2)cc1	HEK293	active
Clc1ccc2c(N3CCN(CCCN4CCN(c5ccnc6cc(Cl)ccc56)CC4)CC3)ccnc2c1	HEK293	inactive
CCC1=C(C)CN(C(=O)NCCc2ccc(S(=O)(=O)NC(=O)NC3CCC(C)CC3)cc2)C1=O (configuration not stated)	HEK293	inactive
CCCS(=O)c1ccc2nc(NC(=O)OC)[nH]c2c1 (configuration not stated)	HEK293	active

stdin: Just curious, what result did Cc1cc2c(s1)Nc1ccccc1N=C2N1CCN(C)CC1 get here?
stdout: inactive

stdin: Note, next up: CC1(C)CCC(C)(C)c2cc(NC(=O)c3ccc(C(=O)O)cc3)ccc21
stdout: inactive
